- Measurement protocol: soluble on expression in E. coli; label from the status in PepcDB or PDB records
Measurement type: soluble on expression in E. coli

MSLNKYEPLFKSLTLPNGVEVRNRFVLAPLTHTSSNDDGTISDIELPYIEKRSKDVGIAINAASNVNDVGKAFPGQPSVAHDSDIEGLKELAQVMKKNGAKAIVQIHHGGAQALPELTPDGDVVAPSAISLKSFGQQKEHDAREMTAEEIEQTIRDFGEATRRAIEAGFDGVEIHGANHYLIHQFVSPYYNRRNDVWADNYKFPVAVIDEVVKAKKAHAYDDFIIGYRLSPEEAESPGISMEITEELIHQIANKPLDYIHVSLMDVNSVTREGKYKGENRLELIHQWINGRMPLIGIGSVFTAEDALNAVENIGVEFVALGCEILLDYDFVAKIKEGREDEIINAFDPNREDQHYLTPNLWEQFNQGFYPLPRKDKEGHHHHHH | soluble
MSKEGDILKPEEETMEFPEGDKVKVILSKEDFEASLKEAGERLVAVDFSATWCGPCRTIRPFFHALSVKHEDVVFLEVDADNCEEVVRECAIMCVPTFQFYKKEEKVDELCGALKEKLEAVIAELK | soluble
MVWLANPERYGQMQYRYCGKSGLRLPALSLGLWHNFGHVNALESQRAILRKAFDLGITHFDLANNYGPPPGSAEENFGRLLREDFAAYRDELIISTKAGYDMWPGPYGSGGSRKYLLASLDQSLKRMGLEYVDIFYSHRVDENTPMEETASALAHAVQSGKALYVGISSYSPERTQKMVELLREWKIPLLIHQPSYNLLNRWVDKSGLLDTLQNNGVGCIAFTPLAQGLLTGKYLNGIPQDSRMHREGNKVRGLTPKMLTEANLNSLRLLNEMAQQRGQSMAQMALSWLLKDDRVTSVLIGASRAEQLEENVQALNNLTFSTKELAQIDQHIADGELNLWQASSDK | soluble

====

- Measurement protocol: soluble on expression in E. coli; label from the status in PepcDB or PDB records
Measurement type: soluble on expression in E. coli

RVASNLDNKARVTELFNSAYSILTEVEKLAQEGKMSEPEAKALATRLMRNNLYKDNEYVYVADENMTFVATPLDPQLHDTSFHDFKDGKGNSVGR | not soluble
MAHHHHHHMITGGSEKLLTKDSVAQYIRRVSSGLLYESAVLPIQFLIRGFRDIVPCEALASLGEQEMMSLLCGCRANDKKPLWTLAEIKSILVAEHGYQTDSPQMTMLQNILANRLTPAEQRSFLLFCTGCPRLPVGGVGALGAITVVKRSDFTMFHGSSGRNSGGSDGIGGADRKEQNPKQPGEWNSLPNETDWPLPSVNTCFRYLKLPPYPTEDLMYKKLRLSIMQGGETFQLS | not soluble
MPSGVCEPKERSPCMNKIDKLDKELEKAREKAAEWQAKIRELEKQKQEEENSQIVQAVRSLKLTPAQLMAFLNDPKNSLTASGHTDPKPEAPEKEDTAHEEN | not soluble

====

- Measurement protocol: soluble on expression in E. coli; label from the status in PepcDB or PDB records
Measurement type: soluble on expression in E. coli

MGSSHHHHHHGGTGENLYFQGGSGMADERFDSMLLAIAQQQQGIDGILDTFFSFLNRKTDFFTQPDMARRSVQQAMSRYLAEAEEKQRKAKEAQAAAQQQQQQQQQSARTSSRVEVLESEEEVNAVAAAQAAEEAAQRKQELERAQREVAEAKAKKEAAGNEAETGATEAFADTGDAPRGLPPTAANGFAYEKYIFSQSLQEAEVRVPLPAVNVKGKQVSIVITSSHLTVGMKGQPPIVDGDLYSKVRAEECMWTIEDGHTVVVTLYKVNSMEWWKTIFQGDPEIDLQKVIPENSKLDDLDSDTRQTVEKMMYDQRQKMMGKPTSDEQKKQDMLRKFMEAHPEMDFSQAKFC | soluble
MSPDKQAAALPRRERNRQAAAASPENSRGKGRRGQRGKNRGCVLTAIHLNVTDLGLGYETKEELIFRYCSGSCEAAETMYDKILKNLSRSRRLTSDKVGQACCRPVAFDDDLSFLDDSLVYHILRKHSAKRCGCI | soluble
